src = patent US20250197387A1

# Lookup of reported DC50 keyed by entry
Target: BCL-XL (Homo sapiens)
Construct: endogenous in cells; host or cells: MOLT-4
Assay: Bcl-xL ELISA degradation in MOLT-4 cells, 6 h
Type: cell-based
Settings: read-out: Bcl-xL ELISA in MOLT-4 degradation 6 h: Mean external-Abs DC50

Cc1ncsc1-c1ccc(CNC(=O)[C@@H]2C[C@@H](O)CN2C(=O)[C@@H](NC(=O)C2(F)CC2)C(C)(C)C)c(OC2CCN(CC3CCN(C(=O)c4nc(N5CCc6cccc(C(=O)Nc7nc8ccccc8s7)c6C5)ccc4-c4cnn(CC5CCCCC5)c4C)CC3)CC2)c1 :: > 1000 nM

## Input Given Cc1ncsc1-c1ccc([C@H](C)NC(=O)[C@@H]2C[C@@H](O)CN2C(=O)[C@@H](NC(=O)N2CC(c3ccc(S(=O)(=O)NC(=O)c4nc(N5CCc6cccc(C(=O)Nc7nc8ccccc8s7)c6C5)ccc4-c4cnn(CC5CCCCC5)c4C)cc3)C2)C(C)(C)C)cc1 , state its recorded DC50.
## Output 100 to 500 nM

## Input Continue with Cc1ncsc1-c1ccc([C@H](C)NC(=O)[C@@H]2C[C@@H](O)CN2C(=O)C(c2cc(OC3CC4(C3)CN(C(=O)c3nc(N5CCc6cccc(C(=O)Nc7nc8ccccc8s7)c6C5)ccc3-c3cnn(CC5CCCCC5)c3C)C4)no2)C(C)C)cc1 (stereo partly shown)
## Output 100 to 500 nM

## Input Continue with Cc1ncsc1-c1ccc([C@H](C)NC(=O)[C@@H]2C[C@@H](O)CN2C(=O)[C@@H](NC(=O)C2CCN(c3ccc(S(=O)(=O)NC(=O)c4nc(N5CCc6cccc(C(=O)Nc7nc8ccccc8s7)c6C5)ccc4-c4cnn(CC5CCCCC5)c4C)cc3Cl)CC2)C(C)(C)C)cc1
## Output 10 to 100 nM

###

# Lookup of reported Dmax keyed by entry
Molecular target: BCL-XL (Homo sapiens, UniProt Q07817)
Construct: endogenous in cells; host or cells: MOLT-4
Sequence (Q07817 whole entry): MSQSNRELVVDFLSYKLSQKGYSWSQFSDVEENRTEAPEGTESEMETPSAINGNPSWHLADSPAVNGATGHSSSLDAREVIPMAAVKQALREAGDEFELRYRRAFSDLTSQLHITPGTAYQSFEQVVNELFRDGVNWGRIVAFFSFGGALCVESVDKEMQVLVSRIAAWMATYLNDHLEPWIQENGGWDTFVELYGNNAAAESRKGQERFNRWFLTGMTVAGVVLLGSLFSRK
Test: Bcl-xL ELISA degradation in MOLT-4 cells, 6 h
Assay type: cell-based

Recorded results for 3 compounds are shown here.
Cc1ncsc1-c1ccc([C@H](C)NC(=O)[C@@H]2C[C@@H](O)CN2C(=O)[C@@H](NC(=O)C2CCN(c3ccc(S(=O)(=O)NC(=O)c4nc(N5CCc6cccc(C(=O)Nc7nc8ccccc8s7)c6C5)ccc4-c4cnn(CC5(CCC(=O)O)CCCCC5)c4C)cc3)CC2)C(C)(C)C)cc1 [I-255] :: 50 to 75%
Cc1ncsc1-c1ccc([C@H](C)NC(=O)[C@@H]2C[C@@H](O)CN2C(=O)[C@@H](c2cc(N3CC4(CN(c5ccc(S(=O)(=O)NC(=O)c6nc(N7CCc8cccc(C(=O)Nc9nc%10ccccc%10s9)c8C7)ccc6-c6cnn(CC7CCCCC7)c6C)cc5)C4)C3)no2)C(C)C)cc1 [I-226] :: 50 to 75%
Cc1ncsc1-c1ccc([C@H](C)NC(=O)[C@@H]2C[C@@H](O)CN2C(=O)[C@@H](NC(=O)CCCCc2ccc(NC(=O)c3nc(N4CCc5cccc(C(=O)Nc6nc7ccccc7s6)c5C4)ccc3-c3cnn(CC4CCCCC4)c3C)cc2)C(C)(C)C)cc1 [I-298] :: < 50%

## Input State its Dmax on BCL-XL (Homo sapiens, UniProt Q07817): C#Cc1ccc(CNC(=O)[C@@H]2C[C@@H](O)CN2C(=O)[C@H](c2cc(N3CCN(c4ccc(S(=O)(=O)NC(=O)c5nc(N6CCc7cccc(C(=O)Nc8nc9ccccc9s8)c7C6)ccc5-c5cnn(CC6CCCCC6)c5C)cc4)CC3)no2)C(C)C)c(OC)c1 [I-408]
## Output 50 to 75%

## Input Continue with Cc1ncsc1-c1ccc(CNC(=O)[C@@H]2C[C@@H](O)CN2C(=O)[C@@H](NC(=O)C2(F)CC2)C(C)(C)C)c(OCC2CN(C3CCC(NC(=O)c4nc(N5CCc6cccc(C(=O)Nc7nc8ccccc8s7)c6C5)ccc4-c4cnn(CC5CCCCC5)c4C)CC3)C2)c1 (some centres unmarked) [I-216]
## Output < 50%
